experiment: Viability Counterscreen for Confirmatory qHTS for Inhibitors of ATXN expression; also: nearly all actives have a fitted effect of over 50% in size; also: potency is read from the fitted curve at half-maximal effect
setup-conditions: HEK-293 ATXN2-luc cells viability, CellTiter-Fluor, 24 h
Screen size: about 2,100 compounds; about 260 (12%) were called active. Not shown: some 58% with an inconclusive outcome. This is one part of the list.

| molecule | Potency |
| --- | --- |
| C/C(=N\NC(=O)CN1CCCCC1)c1ccccc1O | inactive |
| O=c1c2ccccc2sc2c(CO)ccc(NCCN3CCCCC3)c12 | 22.4 µM (active) |
| COC(=O)N/N=C/c1cn(CC(C)COc2ccccc2)c2ccccc12 (stereo unspecified) | inactive |
| COc1cc(/C=C2\SC(=O)N(CC(=O)Nc3ccccc3F)C2=O)cc(Cl)c1O | inactive |
| O=C(CSc1nc2ncc(Cl)cc2[nH]1)Nc1cccc(F)c1 | inactive |
| CCOC(=O)c1c(NC(=O)COC(=O)CNC(=O)c2ccco2)sc(C)c1C | inactive |
| c1ccc2c(c1)c1c(c3ccccc32)CN2CCCC2C1 (stereo unspecified) | inactive |
| CN(CCc1ccccc1)c1cc2c(c3c1ccn3C)C1CCC2O1 (stereo unspecified) | inactive |
| CCCc1nc2c(c(=O)c3ccccc3n2C)c(=O)n1C1CCCCCC1 | 28.2 µM (active) |
| CCOc1ccc(NC(=O)Nc2nnc(CC(=O)NCc3ccccc3)s2)cc1 | inactive |
| Cn1c(/C=C/c2ccc(Cl)cc2Cl)c([N+](=O)[O-])c(=O)n(C)c1=O | 22.4 µM (active) |
| CCOc1ccccc1C(=O)Nc1ccc2nc(N3CCN(c4ncccn4)CC3)cc(C)c2c1 | 11.2 µM (active) |
| CC1CC(C)CN(CCCNC(=O)c2cc3c(s2)-c2ccccc2OC3)C1 (stereo unspecified) | inactive |
| CCN(CC)CCNc1ccc(CO)c2sc3ccccc3c(=O)c12 | 20 µM (active) |
| C/C(=N\NC(=O)C12CCC(C)(C(=O)O1)C2(C)C)c1ccccc1O (stereo unspecified) | inactive |
| CCOc1ccc(C(=O)Nc2ccc(Cc3ccncc3)cc2)cc1Br | inactive |
| O=C(CN1CCCc2ccccc21)N/N=C/c1ccccc1O | inactive |
| CCOc1ccccc1NC(=O)N1CCC(c2nc3ccccc3[nH]2)CC1 | inactive |
| COc1ccc(Cn2c(O)c(/C=N/NC(=O)c3cccnc3)c3ccccc3c2=O)cc1 | inactive |
| N#Cc1nc(COc2ccc(-c3ccccc3)cc2)oc1NCc1cccnc1 | inactive |
| Cc1nc2ccc(NC(=O)c3cccc(S(=O)(=O)N(C)c4ccccc4)c3)cc2s1 | 3.16 µM (active) |
| OC1(c2ccc(Cl)cc2)CCN(Cc2c[nH]c3ccccc23)CC1 | inactive |
| CC(C)c1cccc(C(C)C)c1Nc1cn[nH]c1 | inactive |
| CCc1nnc(NC(=O)c2ccc(S(=O)(=O)N(C)c3ccccc3)cc2)o1 | inactive |
| Cc1ccc(S(=O)(=O)c2nc(S(C)(=O)=O)sc2N2CCCCC2C)cc1 (stereo unspecified) | inactive |
| Cc1ccc(NC(=O)c2ccc(-c3nn(C)c(=O)c4ccccc34)cc2)cc1 | inactive |
| CCCCn1c(SCC(=O)Nc2cc(C(F)(F)F)cc(C(F)(F)F)c2)nnc1C(CC)N(C)C (stereo unspecified) | inactive |
| OC(c1ccccc1)(c1nc(-c2ccc3ccccc3c2)cs1)C(F)(F)F (stereo unspecified) | inactive |
| CC[n+]1c(C=C2C=C(C)OC(C)=C2)sc2ccccc21 | 11.2 µM (active) |
| Cc1ccc2nc(-c3ccccc3)nn2c1 | inactive |
| COc1ccc(C2CC(c3cccc(Br)c3)=NN2c2ccc(S(N)(=O)=O)cc2)cc1 (stereo unspecified) | inactive |
| CCCC(=O)Nc1ccc2nc(SCC(=O)N3CCCC3)sc2c1 | inactive |
| Cc1ccc(NC(=O)CSc2ccc(Br)cc2)cc1S(=O)(=O)N1CCOCC1 | inactive |
| O=C(NCc1ccccc1Cl)C1CCCN(C(=O)Nc2ccc(F)cc2)C1 (stereo unspecified) | inactive |
| O=C(Nc1ccc(NC(=O)c2ccc(Cl)cc2Cl)cc1)c1cccs1 | inactive |
| NC1=NC[C@H](Cc2ccccc2)N1CCCCC1CCCCC1 | inactive |
| COc1cccc(/C=N/Nc2nc3ccccc3n3cnnc23)c1O | inactive |
| Cc1cc(C)cc(NC(=O)CCc2nc3sc4c(c3c(=O)[nH]2)CCCC4)c1 | inactive |
| O=C(N/N=C\c1cc(Cl)ccc1O)c1ccc(S(=O)(=O)N2CCCCC2)cc1 | inactive |
| COc1cc(OC)cc(-c2cc3nc(C)c(CCC(=O)NCc4ccccc4)c(C)n3n2)c1 | inactive |
| Cc1cc(C)c(C(O)c2ncc(-c3cccc4ccccc34)[nH]2)c(C)c1 (stereo unspecified) | inactive |

meta.source: PubChem BioAssay AID1745850
